Sourced from patent US20230141603A1

# EXPERIMENTAL_SYSTEM: h-GABAA α1β3γ2 (Homo sapiens, UniProt P14867+P18507)
# ASSAY_TEXT: Radioligand binding assay, [3H]Flumazenil competition, HEK293F membranes
pKi: −log10 of the molar value.
Returns one of yes or no; yes when pKi is >= 6.

# COMPOUND, ASSIGNED_LABEL
records = [
    ("Fc1ccccc1C1=NCc2nnc(C3CC3)n2-c2ccc(Br)c(Cl)c21", "yes"),
    ("OCc1nnc2n1-c1ccc(Br)c(Cl)c1C(c1c(F)cccc1F)=NC2", "yes"),
    ("Cc1nnc2n1-c1ccc(C(F)(F)F)c(Cl)c1C(c1ncccc1F)=NC2", "no"),
    ("Cc1nnc2n1-c1ccc(Br)c(Cl)c1C(c1c(F)cccc1Cl)=NC2", "yes"),
    ("Cn1cc(-c2nnc3n2-c2ccc(Cl)c(Cl)c2C(c2c(F)cccc2F)=NC3)cn1", "yes"),
    ("Fc1cccc(F)c1C1=NCc2nncn2-c2ccc(I)c(Cl)c21", "yes"),
    ("Cn1cc(-c2nnc3n2-c2ccc(C(F)(F)F)c(Cl)c2C(c2ncccc2F)=NC3)cn1", "no"),
    ("Cc1nnc2n1-c1ccc(Br)c(Cl)c1C(c1c(F)cccc1F)=NC2", "yes"),
    ("Clc1cccnc1C1=NCc2nnc(-c3ccncn3)n2-c2ccc(Br)c(Cl)c21", "yes"),
    ("Fc1ccccc1C1=NCc2nnc(-c3cccnn3)n2-c2ccc(Cl)c(Cl)c21", "yes"),
    ("Fc1cccnc1C1=NCc2nnc(C3CC3)n2-c2ccc(Cl)c(Cl)c21", "no"),
    ("Cc1ccc2c(c1Cl)C(c1c(F)cccc1F)=NCc1nnc(C)n1-2", "yes"),
    ("Cl.NCc1nnc2n1-c1ccc(Br)c(Cl)c1C(c1c(F)cccc1F)=NC2 [Example 36, hydrochloride]", "yes"),
]
